# target-desc: Mitogen-activated protein kinase 8 (Homo sapiens)
# protocol-summary: Inhibition of MAPK8 (unknown origin) at 500 nM
assay-readout: inhibition (%)

1. COc1cc(CO)ccc1-c1cc2c(Nc3ccccc3)ncnc2s1 : 17

a: CN(C)CCNC(=O)c1ccc(-c2cc3c(N[C@H](CO)c4ccccc4)ncnc3s2)cc1
b: C[C@@H](Nc1ncnc2sc(-c3ccc(C(=O)NCCN(C)C)cc3)cc12)c1ccccc1
c: COc1cc(CO)ccc1-c1cc2c(Nc3ccc(F)c(Cl)c3)ncnc2s1
Put the items in sequence by inhibition, from largest down. Would you mind listing the labels in the order asked for?
b, c, a

I: COc1cc(CO)ccc1-c1cc2c(N[C@H](C)c3ccccc3)ncnc2s1
II: C[C@@H](Nc1ncnc2sc(-c3ccccc3C(N)=O)cc12)c1ccccc1
# compare inhibition for I vs II ; return the one with the smaller value # respond with the chosen item's label
I
